TESTED_SYSTEM: furin, P09958;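 also: purified furin at 1:10 enzyme:substrate in 50 mM HEPES pH 7.5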
Sequence (P09958 whole entry): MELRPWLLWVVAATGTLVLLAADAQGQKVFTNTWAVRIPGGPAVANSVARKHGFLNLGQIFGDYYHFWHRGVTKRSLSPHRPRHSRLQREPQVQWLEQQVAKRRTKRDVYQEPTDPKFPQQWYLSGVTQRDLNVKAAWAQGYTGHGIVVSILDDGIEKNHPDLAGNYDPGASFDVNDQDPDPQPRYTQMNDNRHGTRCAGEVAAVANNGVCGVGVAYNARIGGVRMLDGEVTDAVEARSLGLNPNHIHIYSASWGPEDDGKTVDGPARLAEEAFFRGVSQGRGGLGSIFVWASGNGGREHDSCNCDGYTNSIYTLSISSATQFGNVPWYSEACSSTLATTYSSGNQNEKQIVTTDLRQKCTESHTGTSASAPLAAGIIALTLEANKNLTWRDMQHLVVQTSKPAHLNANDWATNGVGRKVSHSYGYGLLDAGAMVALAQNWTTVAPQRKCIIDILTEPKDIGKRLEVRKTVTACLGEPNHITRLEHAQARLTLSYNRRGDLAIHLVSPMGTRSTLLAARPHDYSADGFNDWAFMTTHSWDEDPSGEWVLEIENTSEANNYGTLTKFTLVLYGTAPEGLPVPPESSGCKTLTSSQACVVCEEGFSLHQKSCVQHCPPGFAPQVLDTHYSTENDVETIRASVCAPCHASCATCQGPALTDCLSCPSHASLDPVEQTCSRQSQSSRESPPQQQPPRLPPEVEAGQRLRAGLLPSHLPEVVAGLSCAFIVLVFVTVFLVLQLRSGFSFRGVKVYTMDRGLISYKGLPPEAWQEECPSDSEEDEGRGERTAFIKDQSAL
MEASUREMENT_PROTOCOL: furin cleavage Z-score vs untreated control; higher = more cleavage, active = 3.5 or more, inactive = 1 or less, 8 variable residues between constant flanks
PROTOCOL_CONDITIONS: 15 min
This is one part of the list. The hit rate among all sequences tested is not known here.
EXPERIMENTAL_READOUT: furin cleavage Z-score
One number for each entry.

Study these solved cases before continuing.
Form field furin cleavage Z-score, entry CAASKVKANLAGNASASA [HC1408] : 1.5

Form field furin cleavage Z-score, entry CATLKRTRKFAGNASASA [FS-728] : 2.85

Form field furin cleavage Z-score, entry CARLVRESSGAGNASASA [FS-2999] : 1.39

Form field furin cleavage Z-score, entry CAEIEVPCHRAGNASASA [HC2444] : 1.09

Continue with the next sequence.
Form field furin cleavage Z-score, entry CARLKRTNGNAGNASASA [FS-1963] : 2.26
